This collection of values is drawn from patent US9657002B2.

- target-entity: human vasopressin V1a receptor (Homo sapiens, UniProt P37288)
- Sequence (P37288 whole entry): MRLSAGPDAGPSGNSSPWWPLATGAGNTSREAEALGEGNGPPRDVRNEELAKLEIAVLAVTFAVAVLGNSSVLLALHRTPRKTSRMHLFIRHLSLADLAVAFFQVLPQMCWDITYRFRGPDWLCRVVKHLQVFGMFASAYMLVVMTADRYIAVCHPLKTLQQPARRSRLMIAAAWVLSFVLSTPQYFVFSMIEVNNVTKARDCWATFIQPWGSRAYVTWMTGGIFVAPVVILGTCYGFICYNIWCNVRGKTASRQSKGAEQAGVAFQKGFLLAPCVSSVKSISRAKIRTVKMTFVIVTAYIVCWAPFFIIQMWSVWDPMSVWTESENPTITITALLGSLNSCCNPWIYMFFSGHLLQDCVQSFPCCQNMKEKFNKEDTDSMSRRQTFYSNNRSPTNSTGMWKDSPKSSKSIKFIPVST
- experiment-notes: Vasopressin V1a receptor binding assay
- condition-info: selectivity quotient, human V1a vs human V1b
result-type: Ki(h-V1a)/Ki(h-V1b)

Using the record for COc1ncccc1[C@]1(NC(=O)N2CCN(C3CCN(C4COC4)CC3)CC2)C(=O)N(S(=O)(=O)c2ccc(C#N)cc2F)c2ccc(C#N)cc21 , state its measured Ki(h-V1a)/Ki(h-V1b).
++ (25-75)

Using the record for CCOc1ncccc1[C@]1(NC(=O)N2CCN(C3CCN(C4COC4)CC3)CC2)C(=O)N(S(=O)(=O)c2ccc(OC)cn2)c2ccc(C#N)cc21 , state its measured Ki(h-V1a)/Ki(h-V1b).
+++ (>75)

Using the record for CCOc1ncccc1[C@]1(NC(=O)N2CCN(C3CCN(C4COC4)CC3)CC2)C(=O)N(S(=O)(=O)c2ccc(F)cc2OC)c2ccc(C#N)cc21 , state its measured Ki(h-V1a)/Ki(h-V1b).
+++ (>75)

Using the record for COc1ccc(S(=O)(=O)N2C(=O)[C@@](NC(=O)N3CCN(C4CCN(C5COC5)CC4)CC3)(c3cccnc3OC)c3cc(C#N)ccc32)cc1 , state its measured Ki(h-V1a)/Ki(h-V1b).
++ (25-75)

Using the record for COc1ccc(S(=O)(=O)N2C(=O)[C@@](NC(=O)N3CCN(C4CCN(C5COC5)CC4)CC3)(c3cccnc3OC(C)C)c3cc(C#N)ccc32)c(OC)c1 , state its measured Ki(h-V1a)/Ki(h-V1b).
+++ (>75)

Field: next compound
Using the record for COc1ccc(S(=O)(=O)N2C(=O)[C@@](NC(=O)N3CCN(C4CCN(C5COC5C)CC4)CC3)(c3cccnc3OC)c3cc(C#N)ccc32)c(OC)c1.O=C(O)C(F)(F)F.O=C(O)C(F)(F)F (stereo partly drawn) , state its measured Ki(h-V1a)/Ki(h-V1b).
++ (25-75)
